Test system: Fibroblast
assay.comment: Multiplex assay against human fibroblast
Type: toxicity, cell-based
condition: 24 h, 10 µM, compound concentration 10 uM, replicate 1
Decide using Population Membrane Permeable-Phenotype (%) alone. Strictly below 10%: condition met. Equal to or above 10%: condition not met.

[[record]]
smiles_structure = "CC(C)Oc1ccccc1C(=O)Nc1ccccc1C(=O)Nc1cccc(S(=O)(=O)C(F)(F)F)c1"
target_or_system = "Fibroblast"
answer_label = "condition not met"

[[record]]
smiles_structure = "Cl.O=C(O)c1cc(-c2ccc(C3CCNCC3)cc2)c2ccc(-c3ccc(C(F)(F)F)cc3)cc2c1"
target_or_system = "Fibroblast"
answer_label = "condition not met"

[[record]]
smiles_structure = "C=CC(=O)Nc1cccc(Sc2nc(Nc3ccc(N4CCN(C)CC4)cc3)ncc2Cl)c1"
target_or_system = "Fibroblast"
answer_label = "condition met"

[[record]]
smiles_structure = "Cc1nc(N2CC[C@H](O)C2)ncc1-c1cc(C(F)(F)F)cc2[nH]ncc12"
target_or_system = "Fibroblast"
answer_label = "condition met"


----------
Each entry below carries its recorded Population Apoptotic (%).
System: HEK-293T
assay.comment: Multiplex assay against HEK293T
Assay type: toxicity, cell-based
condition: human, 24 h, 1 µM, compound concentration 1 uM, replicate 1
measurement.name: Population Apoptotic (%)

[[record]]
compound = "COc1cc(Nc2nccc(-c3cnn4nc(OC)ccc34)n2)cc(C(F)(F)F)c1"
unit_abbrev = "%"
measured = 47

[[record]]
compound = "CCOC(=O)Nc1cc(-c2ccc(C)c(NS(C)(=O)=O)c2)nn2c(C)nnc12"
unit_abbrev = "%"
measured = 13

[[record]]
compound = "CNC(=O)Nc1ccc2c(c1)[C@@]1(CC2)OC(=O)N(CC(=O)N(Cc2ccc(F)cc2)[C@@H](C)C(F)(F)F)C1=O [A-486]"
unit_abbrev = "%"
measured = 24

[[record]]
compound = "C=CC(=O)Nc1cccc(Sc2nc(Nc3ccc(N4CCN(C)CC4)cc3)ncc2Cl)c1"
unit_abbrev = "%"
measured = 55

[[record]]
compound = "CC(C)NC(=O)N1CC[C@H](NC2=Nc3cc(F)ccc3N(CC(F)F)c3ccc(Cl)cc32)C1"
unit_abbrev = "%"
measured = 37

[[record]]
compound = "O=c1cc(N2CCOCC2)oc2c(-c3cccc4c3sc3ccccc34)cccc12"
unit_abbrev = "%"
measured = 53

[[record]]
compound = "C=CC(=O)Nc1ccc2[nH]c(=O)n(C3CCN(Cc4ccc(-c5nc6cc[nH]c(=O)c6cc5-c5ccccc5)cc4)CC3)c2c1 [Borussertib]"
unit_abbrev = "%"
measured = 15

[[record]]
compound = "C=CC(=O)Nc1cccc(Oc2nc(Nc3ccc(N4CCN(C)CC4)cc3OC)ncc2Cl)c1"
unit_abbrev = "%"
measured = 36


----------
Tested on: U2OS
assay.comment: Incucyte cell viability with U2OS; note: filed as whole numbers so only -1 and 0 and 1 occur
Assay type: toxicity, cell-based
condition: human, 6 h, 10 µM, compound concentration 10 uM, replicate number 1, timepoint 6 hours
Each entry below carries its recorded Growth Rate.
measurement.name: Growth Rate

[[record]]
molecule = "C[C@]1(O)C[C@@H](c2nc(-c3ccc4ccc(-c5ccccc5)nc4c3)c3c(N)nccn32)C1 [LINSITINIB]"
measurement_name = "Growth Rate"
measured = 0

[[record]]
molecule = "Cc1ccccc1C(=O)Nc1ccc(C(=O)N2CCCC(O)c3cc(Cl)ccc32)c(C)c1 (stereo not drawn) [TOLVAPTAN]"
measurement_name = "Growth Rate"
measured = 0

[[record]]
molecule = "CNCc1ccccc1-c1csc([C@@H](C)Nc2nc(C)nc3cc(OC)c(OC)cc23)c1 [BAY-293]"
measurement_name = "Growth Rate"
measured = 0

[[record]]
molecule = "CN1CCc2c(c3ccccc3n2Cc2ccc(C(=O)NO)cc2)C1 [TUBASTATIN A]"
measurement_name = "Growth Rate"
measured = 1

[[record]]
molecule = "CCCSc1nc(N[C@@H]2C[C@H]2c2ccc(F)c(F)c2)c2nnn([C@@H]3C[C@H](OCCO)[C@@H](O)[C@H]3O)c2n1 [TICAGRELOR]"
measurement_name = "Growth Rate"
measured = 0

[[record]]
molecule = "COc1cc2c(cc1NS(=O)(=O)c1ccc(Br)cc1C)n(C)c(=O)n2C"
measurement_name = "Growth Rate"
measured = 1

[[record]]
molecule = "CC(C)NC(=O)N1CC[C@H](NC2=Nc3cc(F)ccc3N(CC(F)F)c3ccc(Cl)cc32)C1"
measurement_name = "Growth Rate"
measured = 0

[[record]]
molecule = "Cc1c[nH]c2nccc(Oc3c(F)cc(Nc4cc(Cl)nc(N)n4)cc3F)c12 [BAY-549]"
measurement_name = "Growth Rate"
measured = 0


----------
System: Fibroblast
assay.comment: Multiplex assay against human fibroblast
Type: toxicity, cell-based
condition: 12 h, 10 µM, compound concentration 10 uM, replicate 2
measurement.name: Population Tubulin-Different-Phenotype (%)

[[record]]
compound = "Cc1nc(N2CC[C@H](O)C2)ncc1-c1cc(C(F)(F)F)cc2[nH]ncc12"
measured = 15

[[record]]
compound = "Cc1c[nH]c2nccc(Oc3c(F)cc(Nc4cc(Cl)nc(N)n4)cc3F)c12 [BAY-549]"
measured = 10

[[record]]
compound = "C=CC(=O)Nc1cccc(Oc2nc(Nc3ccc(N4CCN(C)CC4)cc3OC)ncc2Cl)c1"
measured = 18

[[record]]
compound = "CNC(=O)Nc1ccc2c(c1)[C@@]1(CC2)OC(=O)N(CC(=O)N(Cc2ccc(F)cc2)[C@@H](C)C(F)(F)F)C1=O [A-486]"
measured = 45

[[record]]
compound = "CC(C)NC(=O)N1CC[C@H](NC2=Nc3cc(F)ccc3N(CC(F)F)c3ccc(Cl)cc32)C1"
measured = 58

[[record]]
compound = "CC(C)OC(=O)N1CCC(Oc2ncnc3c2cnn3-c2ccc(S(C)(=O)=O)cc2F)CC1"
measured = 28

[[record]]
compound = "CCc1ccc(OCc2ccccc2C(=O)Nc2ccc3nc(C)cc(N)c3c2)cc1.Cl"
measured = 100

[[record]]
compound = "Cc1cccc(CN2CCN(C(c3ccccc3)c3ccc(Cl)cc3)CC2)c1.Cl.Cl (centres undefined)"
measured = 47

[[record]]
compound = "C=CC(=O)Nc1ccc2[nH]c(=O)n(C3CCN(Cc4ccc(-c5nc6cc[nH]c(=O)c6cc5-c5ccccc5)cc4)CC3)c2c1 [Borussertib]"
measured = 68

[[record]]
compound = "CCCSc1nc(N[C@@H]2C[C@H]2c2ccc(F)c(F)c2)c2nnn([C@@H]3C[C@H](OCCO)[C@@H](O)[C@H]3O)c2n1 [TICAGRELOR]"
measured = 96

[[record]]
compound = "C=CC(=O)Nc1cccc(Sc2nc(Nc3ccc(N4CCN(C)CC4)cc3)ncc2Cl)c1"
measured = 25

[[record]]
compound = "CN1CCN(Cc2ccc(Nc3ncc(Cl)c(Nc4ccccc4S(=O)(=O)N(C)C)n3)cc2)CC1 [DUBERMATINIB]"
measured = 42

[[record]]
compound = "COc1ccccc1CN[C@H]1C2CCN(CC2)[C@H]1C(c1ccccc1)c1ccccc1 [CP-96345]"
measured = 26

[[record]]
compound = "Cl.O=C(O)c1cc(-c2ccc(C3CCNCC3)cc2)c2ccc(-c3ccc(C(F)(F)F)cc3)cc2c1"
measured = 23

[[record]]
compound = "COc1cc(Nc2nccc(-c3cnn4nc(OC)ccc34)n2)cc(C(F)(F)F)c1"
measured = 15

[[record]]
compound = "C[C@]12CC[C@@H]3c4ccc(O)cc4CC[C@H]3[C@@H]1CC[C@@H]2O [ESTRADIOL]"
measured = 25

[[record]]
compound = "COc1ccc(-c2ccc3ncc4c(c3c2)n(-c2ccc(N3CCNCC3)c(C(F)(F)F)c2)c(=O)n4C)cn1.O=C(O)/C=C\\C(=O)O [BGT-226]"
measured = 24

[[record]]
compound = "CC(C)(C)NC[C@H](O)COc1nsnc1N1CCOCC1 [TIMOLOL]"
measured = 4

[[record]]
compound = "CC(C)c1noc(N2CCC(COc3ccc(-c4ccc(S(C)(=O)=O)cc4)nc3)CC2)n1 [GSK-1292263]"
measured = 15

[[record]]
compound = "CC(C)Oc1ccccc1C(=O)Nc1ccccc1C(=O)Nc1cccc(S(=O)(=O)C(F)(F)F)c1"
measured = 100

[[record]]
compound = "CC(C)CC(=O)Nc1[nH]nc2c1CN(C(=O)C1CCN(C)CC1)C2(C)C [PHA-793887]"
measured = 30

[[record]]
compound = "COc1cc2ncn(-c3cc(OCc4ccccc4C(F)(F)F)c(C(N)=O)s3)c2cc1OC [GW843682X]"
measured = 98

[[record]]
compound = "O=c1[nH]c2ccccc2n1C1CCN(Cc2ccc(-c3[nH]c4cc5ncnc5cc4nc3-c3ccccc3)cc2)CC1"
measured = 72

[[record]]
compound = "COC(=O)C1=C(C)NC(C)=C(C(=O)OCCCN2CCC(c3ccccc3)(c3ccccc3)CC2)[C@H]1c1cccc([N+](=O)[O-])c1 [NIGULDIPINE]"
measured = 100


----------
Tested on: HEK-293T
assay.comment: Multiplex assay against HEK293T
Assay type: toxicity, cell-based
condition: human, 48 h, 10 µM, compound concentration 10 uM, replicate 2
Please assign a class to every record based on measured Population Mitotic Cells (%), with ranges LOW = under 40%, MEDIUM = from 40% up to 60%, HIGH = 60% and over

[[record]]
compound = "Cc1ccc(C)c(Oc2ccncc2C(=O)N2CCN(C3CC3)c3ccccc32)c1"
answer_label = "LOW"

[[record]]
compound = "CC(C)(C)NC[C@H](O)COc1nsnc1N1CCOCC1 [TIMOLOL]"
answer_label = "HIGH"

[[record]]
compound = "Cc1ccccc1C(c1ccccc1C)N1C2CCC1CC(O)(c1ccccc1)C2 (stereo not given)"
answer_label = "HIGH"

[[record]]
compound = "COc1cc(Nc2nccc(-c3cnn4nc(OC)ccc34)n2)cc(C(F)(F)F)c1"
answer_label = "MEDIUM"

[[record]]
compound = "CC1=C(C(=O)Nc2cc3cn[nH]c3cc2F)C(c2ccc(C(F)(F)F)cc2)CC(=O)N1 (stereo not given)"
answer_label = "LOW"

[[record]]
compound = "C[C@]12CC[C@@H]3c4ccc(O)cc4CC[C@H]3[C@@H]1CC[C@@H]2O [ESTRADIOL]"
answer_label = "HIGH"

[[record]]
compound = "Cc1cccc(CN2CCN(C(c3ccccc3)c3ccc(Cl)cc3)CC2)c1.Cl.Cl (stereo not given)"
answer_label = "MEDIUM"

[[record]]
compound = "CNC(=O)Nc1ccc(-c2nc(N3CC4CCC(C3)O4)c3cnn(C4CCC5(CC4)OCCO5)c3n2)cc1"
answer_label = "LOW"

